The measured values listed here are drawn from patent US20260151494A1.

target: T1, human CD71 extracellular domain (human, UniProt P02786 89-760); test: primary ELISA, luminescence; further: test concentration or dose not given here
T1 construct: also called hCD71; human CD71-ECD
T1 sequence (P02786 89-760): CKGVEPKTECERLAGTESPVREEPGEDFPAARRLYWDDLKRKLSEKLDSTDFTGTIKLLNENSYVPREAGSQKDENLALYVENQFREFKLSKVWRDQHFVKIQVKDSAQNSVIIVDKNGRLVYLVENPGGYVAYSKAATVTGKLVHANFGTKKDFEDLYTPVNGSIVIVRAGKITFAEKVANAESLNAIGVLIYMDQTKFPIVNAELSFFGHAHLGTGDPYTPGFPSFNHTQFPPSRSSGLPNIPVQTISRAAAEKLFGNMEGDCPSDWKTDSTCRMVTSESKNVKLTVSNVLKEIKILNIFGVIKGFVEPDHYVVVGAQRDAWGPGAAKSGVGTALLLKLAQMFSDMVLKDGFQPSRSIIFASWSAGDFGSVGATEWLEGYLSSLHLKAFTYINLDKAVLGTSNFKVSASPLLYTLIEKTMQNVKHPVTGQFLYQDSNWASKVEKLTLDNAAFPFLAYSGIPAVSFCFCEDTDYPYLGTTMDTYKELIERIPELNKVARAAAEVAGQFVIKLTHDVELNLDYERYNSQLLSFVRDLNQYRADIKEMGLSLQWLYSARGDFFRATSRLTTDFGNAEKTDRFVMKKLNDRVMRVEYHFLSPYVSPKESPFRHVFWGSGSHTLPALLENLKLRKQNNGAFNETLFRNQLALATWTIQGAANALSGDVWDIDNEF
Readout Name: RLU (RLU)

Binder	Readout Name	Test Result
CD71-binding FN3 domain of SEQ ID NO: 225 (designed binder) MSLPAPKNLVVSRVTEDSARLSWTAPDAAFDSFEIGYFENLYLGEAIVLTVPGSERSYDLTGLKPGTEYWVQIGGVKGGNWSAPLSAIFTT	RLU	2.43e+06
CD71-binding FN3 domain of SEQ ID NO: 223 (designed binder) MSLPAPKNLVVSRVTEDSARLSWTAPDAAFDSFEIAYFERTWFGEAIVLTVPGSERSYDLTGLKPGTEYWVAIGGVKGGLWSLPLSVIFTT	RLU	2.25e+06
